- PROCEDURE_TEXT: bioavailability of dextromethorphan after nasal, oral and intravenous administration (plasma levels, spectrofluorophotometric)
- Format: in vivo, female beagle dogs
- APPLIED_CONDITIONS: dog, plasma, po, 15 mg, oral, average of three dogs, 15 mg/dog; read-out: AUC 0-120 min., Average ± S.E. (converted)
MEASURED_METRIC: AUC(0-t) at 2 h (ng·h/mL)
Give your result in ng·h/mL as a bare value.

Look at this compound and give its reported AUC(0-t) at 2 h. `COc1ccc2c(c1)[C@]13CCCC[C@@H]1[C@H](C2)N(C)CC3`
130

---

- PROCEDURE_TEXT: bioavailability of dextromethorphan after nasal, oral and intravenous administration (plasma levels, spectrofluorophotometric)
- Assay type: in vivo, female beagle dogs
- APPLIED_CONDITIONS: dog, plasma, iv, 15 mg, intravenous, individual dogs, 15 mg/dog; read-out: AUC 0-120 min., Individual AUC (converted)
MEASURED_METRIC: AUC(0-t) at 2 h (ng·h/mL)
Give your result in ng·h/mL as a bare value.

Look at this molecule and give its reported AUC(0-t) at 2 h. `COc1ccc2c(c1)[C@]13CCCC[C@@H]1[C@H](C2)N(C)CC3`
537

---

- PROCEDURE_TEXT: bioavailability of dextromethorphan after nasal, oral and intravenous administration (plasma levels, spectrofluorophotometric)
- Assay type: in vivo, female beagle dogs
- APPLIED_CONDITIONS: dog, plasma, iv, 15 mg, dog #1, 35 min, HBr salt 15 mg/dog
MEASURED_METRIC: concentration at 35 min (ng/mL)
Give your result in ng/mL as a bare value.

Look at this compound and give its reported concentration at 35 min. COc1ccc2c(c1)[C@]13CCCC[C@@H]1[C@H](C2)N(C)CC3 [dextromethorphan, d-3-methoxy-N-methylmorphinan]
296

---

- PROCEDURE_TEXT: bioavailability of dextromethorphan after nasal, oral and intravenous administration (plasma levels, spectrofluorophotometric)
- Type: in vivo, female beagle dogs
- APPLIED_CONDITIONS: dog, plasma, 15 mg, nasal, average of three dogs, 15 mg/dog; read-out: AUC 0-120 min., Average ± S.E. (converted)
MEASURED_METRIC: AUC(0-t) at 2 h (ng·h/mL)
Give your result in ng·h/mL as a bare value.

Look at this compound and give its reported AUC(0-t) at 2 h. `COc1ccc2c(c1)[C@]13CCCC[C@@H]1[C@H](C2)N(C)CC3`
472

---

- PROCEDURE_TEXT: bioavailability of dextromethorphan after nasal, oral and intravenous administration (plasma levels, spectrofluorophotometric)
- Assay type: in vivo, female beagle dogs
- APPLIED_CONDITIONS: dog, plasma, 15 mg, nasal, dog #2, 120 min, HBr salt 15 mg/dog
MEASURED_METRIC: concentration at 2 h

Look at this compound and give its reported concentration at 2 h. `COc1ccc2c(c1)[C@]13CCCC[C@@H]1[C@H](C2)N(C)CC3`
141 ng/mL

---

- PROCEDURE_TEXT: bioavailability of dextromethorphan after nasal, oral and intravenous administration (plasma levels, spectrofluorophotometric)
- Type: in vivo, female beagle dogs
- APPLIED_CONDITIONS: dog, plasma, 15 mg, nasal, dog #3, 20 min, HBr salt 15 mg/dog
- Protocol: The following study was undertaken to determine the bioavailability of dextromethorphan from nasal solution in comparison with the bioavailability of the drug when administered orally and intravenously. Three female beagle dogs weighing about 10 kg each were used for the study without fasting. […] After nasal, oral, and intravenous administration, blood was sampled from the cubital vein periodically. The blood sample, was centrifuged and 2.5 ml of plasma were analyzed. […]
MEASURED_METRIC: concentration at 20 min

Look at this molecule and give its reported concentration at 20 min. `COc1ccc2c(c1)[C@]13CCCC[C@@H]1[C@H](C2)N(C)CC3`
263 ng/mL

---

- PROCEDURE_TEXT: bioavailability of dextromethorphan after nasal, oral and intravenous administration (plasma levels, spectrofluorophotometric)
- Type: in vivo, female beagle dogs
- APPLIED_CONDITIONS: dog, plasma, po, 15 mg, dog #3, 120 min, HBr salt 15 mg/dog
MEASURED_METRIC: concentration at 2 h (ng/mL)
Give your result in ng/mL as a bare value.

Look at this compound and give its reported concentration at 2 h. COc1ccc2c(c1)[C@]13CCCC[C@@H]1[C@H](C2)N(C)CC3 [dextromethorphan, d-3-methoxy-N-methylmorphinan]
91.5

---

- PROCEDURE_TEXT: bioavailability of dextromethorphan after nasal, oral and intravenous administration (plasma levels, spectrofluorophotometric)
- Assay type: in vivo, female beagle dogs
- APPLIED_CONDITIONS: dog, plasma, po, 15 mg, dog #1, 55 min, HBr salt 15 mg/dog
MEASURED_METRIC: concentration at 55 min (ng/mL)
Give your result in ng/mL as a bare value.

Look at this molecule and give its reported concentration at 55 min. COc1ccc2c(c1)[C@]13CCCC[C@@H]1[C@H](C2)N(C)CC3 [dextromethorphan, d-3-methoxy-N-methylmorphinan]
73.6

---

- PROCEDURE_TEXT: bioavailability of dextromethorphan after nasal, oral and intravenous administration (plasma levels, spectrofluorophotometric)
- Type: in vivo, female beagle dogs
- APPLIED_CONDITIONS: dog, plasma, 15 mg, nasal, dog #1, 120 min, HBr salt 15 mg/dog
MEASURED_METRIC: concentration at 2 h (ng/mL)
Give your result in ng/mL as a bare value.

Look at this compound and give its reported concentration at 2 h. `COc1ccc2c(c1)[C@]13CCCC[C@@H]1[C@H](C2)N(C)CC3`
154

---

- PROCEDURE_TEXT: bioavailability of dextromethorphan after nasal, oral and intravenous administration (plasma levels, spectrofluorophotometric)
- Format: in vivo, female beagle dogs
- APPLIED_CONDITIONS: dog, plasma, iv, 15 mg, dog #1, 120 min, HBr salt 15 mg/dog
MEASURED_METRIC: concentration at 2 h

Look at this molecule and give its reported concentration at 2 h. COc1ccc2c(c1)[C@]13CCCC[C@@H]1[C@H](C2)N(C)CC3 [dextromethorphan, d-3-methoxy-N-methylmorphinan]
144 ng/mL

---

- PROCEDURE_TEXT: bioavailability of dextromethorphan after nasal, oral and intravenous administration (plasma levels, spectrofluorophotometric)
- Format: in vivo, female beagle dogs
- APPLIED_CONDITIONS: dog, plasma, 15 mg, nasal, dog #3, 55 min, HBr salt 15 mg/dog
MEASURED_METRIC: concentration at 55 min
Respond with a number, then the unit of measure.

Look at this compound and give its reported concentration at 55 min. COc1ccc2c(c1)[C@]13CCCC[C@@H]1[C@H](C2)N(C)CC3 [dextromethorphan, d-3-methoxy-N-methylmorphinan]
129 ng/mL

---

- PROCEDURE_TEXT: bioavailability of dextromethorphan after nasal, oral and intravenous administration (plasma levels, spectrofluorophotometric)
- Assay type: in vivo, female beagle dogs
- APPLIED_CONDITIONS: dog, plasma, po, 15 mg, dog #1, 80 min, HBr salt 15 mg/dog
MEASURED_METRIC: concentration at 80 min (ng/mL)
Give your result in ng/mL as a bare value.

Look at this molecule and give its reported concentration at 80 min. COc1ccc2c(c1)[C@]13CCCC[C@@H]1[C@H](C2)N(C)CC3 [dextromethorphan, d-3-methoxy-N-methylmorphinan]
80.1

---

- PROCEDURE_TEXT: bioavailability of dextromethorphan after nasal, oral and intravenous administration (plasma levels, spectrofluorophotometric)
- Format: in vivo, female beagle dogs
- APPLIED_CONDITIONS: dog, plasma, iv, 15 mg, dog #1, 3 min, HBr salt 15 mg/dog
MEASURED_METRIC: concentration at 0.05 h (ng/mL)
Give your result in ng/mL as a bare value.

Look at this molecule and give its reported concentration at 0.05 h. `COc1ccc2c(c1)[C@]13CCCC[C@@H]1[C@H](C2)N(C)CC3`
927

---

- PROCEDURE_TEXT: bioavailability of dextromethorphan after nasal, oral and intravenous administration (plasma levels, spectrofluorophotometric)
- Type: in vivo, female beagle dogs
- APPLIED_CONDITIONS: dog, plasma, 15 mg, nasal, dog #2, 55 min, HBr salt 15 mg/dog
MEASURED_METRIC: concentration at 55 min (µg/mL)
Give your result in µg/mL as a bare value.

Look at this compound and give its reported concentration at 55 min. `COc1ccc2c(c1)[C@]13CCCC[C@@H]1[C@H](C2)N(C)CC3`
0.17

---

- PROCEDURE_TEXT: bioavailability of dextromethorphan after nasal, oral and intravenous administration (plasma levels, spectrofluorophotometric)
- Type: in vivo, female beagle dogs
- APPLIED_CONDITIONS: dog, plasma, iv, 15 mg, dog #2, 12 min, HBr salt 15 mg/dog
MEASURED_METRIC: concentration at 0.2 h (ng/mL)
Give your result in ng/mL as a bare value.

Look at this compound and give its reported concentration at 0.2 h. `COc1ccc2c(c1)[C@]13CCCC[C@@H]1[C@H](C2)N(C)CC3`
349
